- SYSTEM: ROCK2 (Homo sapiens, UniProt O75116)
- Construct: purchased Upstate/Chemicon 14-451
- Sequence (O75116 11-552 limits assumed): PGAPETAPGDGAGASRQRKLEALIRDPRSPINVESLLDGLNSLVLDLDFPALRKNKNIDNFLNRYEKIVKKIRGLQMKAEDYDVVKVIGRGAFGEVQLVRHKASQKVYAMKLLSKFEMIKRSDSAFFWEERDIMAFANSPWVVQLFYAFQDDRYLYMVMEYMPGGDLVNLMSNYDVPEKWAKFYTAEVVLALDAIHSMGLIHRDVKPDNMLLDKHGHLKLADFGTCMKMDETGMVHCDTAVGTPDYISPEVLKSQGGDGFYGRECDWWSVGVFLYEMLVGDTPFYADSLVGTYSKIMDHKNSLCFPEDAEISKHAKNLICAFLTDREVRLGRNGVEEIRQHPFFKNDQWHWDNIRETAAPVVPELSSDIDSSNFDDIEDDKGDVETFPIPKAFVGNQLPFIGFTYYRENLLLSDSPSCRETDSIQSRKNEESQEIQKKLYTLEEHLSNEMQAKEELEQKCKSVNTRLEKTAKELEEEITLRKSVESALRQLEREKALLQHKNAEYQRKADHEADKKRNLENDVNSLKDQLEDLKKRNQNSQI
- EXPERIMENT_SUMMARY: Rho kinase inhibition assay (IMAP fluorescence polarization), ROCK2
- Format: biochemical
- DETAILS: average Ki; read-out: ROCK2 Ki

| CHEMICAL_STRUCTURE | Ki |
| --- | --- |
| Cc1ccc(CN2CC[C@@H](Nc3cccc4cnccc34)C2)cc1OCC(=O)O | 4.2 nM |
| c1cc(N[C@@H]2CCN(Cc3ccc4occc4c3)C2)c2ccncc2c1 | 6.4 nM |
| CS(=O)(=O)Cc1cccc(CN2CCC[C@H](Nc3ccc4[nH]ncc4c3)C2)c1 | 8.8 nM |
| C#Cc1ccc(CN2CCC[C@H](Nc3ccc4[nH]ncc4c3)C2)cc1 | 11.1 nM |
| Cc1ccc(CN2CCC[C@@H](Nc3ccc4[nH]ncc4c3)C2)cc1OCCO | 2.5 nM |
| OCCn1cc(CN2CC[C@@H](Nc3cccc4cnccc34)C2)c2ccccc21 | 4.4 nM |
| CSc1cccc(CN2CCC[C@H](Nc3ccc4[nH]ncc4c3)C2)c1 | 5.1 nM |
| C#Cc1cccc(CN2CCC[C@@H](Nc3ccc4[nH]ncc4c3)C2)c1 | 14.8 nM |

----------
The reader will find reported Ki values listed item by item below.
- SYSTEM: ROCK1 (Homo sapiens, UniProt Q13464)
- Construct: purchased Upstate/Chemicon 14-601
- Sequence (Q13464 17-535 limits assumed): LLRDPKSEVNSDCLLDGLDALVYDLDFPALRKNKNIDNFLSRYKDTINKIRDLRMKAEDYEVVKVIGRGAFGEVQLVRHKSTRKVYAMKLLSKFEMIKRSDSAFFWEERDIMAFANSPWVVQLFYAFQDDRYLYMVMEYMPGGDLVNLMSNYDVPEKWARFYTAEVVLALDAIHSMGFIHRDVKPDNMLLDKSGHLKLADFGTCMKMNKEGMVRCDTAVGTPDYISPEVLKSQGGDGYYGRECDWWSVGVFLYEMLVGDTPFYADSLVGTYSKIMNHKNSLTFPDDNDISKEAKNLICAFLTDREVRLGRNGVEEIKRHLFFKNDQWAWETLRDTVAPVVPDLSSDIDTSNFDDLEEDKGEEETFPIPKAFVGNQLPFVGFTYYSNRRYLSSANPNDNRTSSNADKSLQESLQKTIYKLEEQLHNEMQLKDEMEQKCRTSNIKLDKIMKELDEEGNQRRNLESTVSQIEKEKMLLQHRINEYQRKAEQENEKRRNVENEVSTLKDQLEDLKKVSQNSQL
- EXPERIMENT_SUMMARY: Rho kinase inhibition assay (IMAP fluorescence polarization), ROCK1
- Format: biochemical
- DETAILS: Avg, 10 μM ATP

| COMPOUND | SYSTEM | Ki [nM] |
| --- | --- | --- |
| Cc1ccc(CN2CCC[C@H](Nc3cccc4cnccc34)C2)cc1 [Compound 2.045] | ROCK1 (Homo sapiens, UniProt Q13464) | 90.6 |
| c1cc2cc(CN3CCC[C@H](Nc4ccc5[nH]ncc5c4)C3)ccc2s1 [Compound 1.175] | ROCK1 (Homo sapiens, UniProt Q13464) | 65.9 |
| c1cc(N[C@@H]2CCN(Cc3ccc(C4CC4)cc3)C2)c2ccncc2c1 [Compound 2.022] | ROCK1 (Homo sapiens, UniProt Q13464) | 44.8 |
| c1ccc(CN2CC[C@@H](Nc3cccc4cnccc34)C2)cc1 [Compound 2.046] | ROCK1 (Homo sapiens, UniProt Q13464) | 16.7 |
| Cc1cccc(CN2CCC[C@H](Nc3ccc4[nH]ncc4c3)C2)c1C [Compound 1.156] | ROCK1 (Homo sapiens, UniProt Q13464) | 136 |
| c1cc2ccc(CN3CCC[C@H](Nc4ccc5[nH]ncc5c4)C3)cc2[nH]1 [Compound 1.148] | ROCK1 (Homo sapiens, UniProt Q13464) | 24.3 |
| CCSc1ccc(CN2CCC[C@H](Nc3ccc4[nH]ncc4c3)C2)cc1 [Compound 1.168] | ROCK1 (Homo sapiens, UniProt Q13464) | 162 |
| Cc1ccc(CN2CC[C@@H](Nc3cccc4c(=O)[nH]ccc34)C2)cc1OCCO [Compound 2.093] | ROCK1 (Homo sapiens, UniProt Q13464) | 576 |

----------
The reader will find reported Vz_F values listed item by item below.
- EXPERIMENT_SUMMARY: Rat oral pharmacokinetics (plasma)
- Type: in vivo
- DETAILS: 20-30 μmol/kg, mean n = 3

| MOLECULE | Vz_F, L/kg |
| --- | --- |
| OCCOc1cccc(CN2CC[C@@H](Nc3cccc4cnccc34)C2)c1 [Compound 2.039] | 59.4 |
| OCCn1ccc2ccc(CN3CCC[C@@H](Nc4ccc5[nH]ncc5c4)C3)cc21 [Compound 1.108] | 116 |
| NC(=O)Cn1ccc2ccc(CN3CCC[C@H](Nc4ccc5[nH]ncc5c4)C3)cc21 [Compound 1.107] | 36.3 |
| OCCOc1cccc(CN2CCC[C@@H](Nc3ccc4[nH]ncc4c3)C2)c1 [Compound 1.092] | 19.0 |
| c1cc2cc(CN3CCC[C@@H](Nc4ccc5[nH]ncc5c4)C3)ccc2o1 [Compound 1.131] | 6.8 |
| CCS(=O)(=O)Nc1cccc(CN2CCC[C@@H](Nc3ccc4[nH]ncc4c3)C2)c1 [Compound 1.123] | 14.8 |
| CCS(=O)(=O)Nc1cccc(CN2CCC[C@H](Nc3ccc4[nH]ncc4c3)C2)c1 [Compound 1.124] | 93.4 |

----------
The reader will find reported Ki values listed item by item below.
- SYSTEM: ROCK1 (Homo sapiens)
- Construct: purchased Upstate/Chemicon 14-601
- EXPERIMENT_SUMMARY: Rho kinase inhibition assay (IMAP fluorescence polarization), ROCK1
- Format: biochemical
- DETAILS: Avg, 10 μM ATP

| COMPOUND | Ki (nM) |
| --- | --- |
| COc1ccc(CN2CCC[C@H](Nc3ccc4[nH]ncc4c3)C2)cc1 [Compound 1.079] | 71.5 |
| CCCS(=O)(=O)Nc1cc(CN2CCC[C@H](Nc3ccc4[nH]ncc4c3)C2)ccc1C [Compound 1.238] | 61.2 |
| c1cc(N[C@@H]2CCN(Cc3ccc4c(c3)OCCO4)C2)c2ccncc2c1 [Compound 2.056] | 107 |
| CNC(=O)Nc1cccc(CN2CCC[C@@H](Nc3ccc4[nH]ncc4c3)C2)c1 [Compound 1.265] | 162 |
| NC(=O)c1cccc(CN2CCC[C@H](Nc3ccc4[nH]ncc4c3)C2)c1 [Compound 1.219] | 344 |
| c1cc(CN2CCC[C@@H](Nc3ccc4[nH]ncc4c3)C2)cc(-c2ccco2)c1 [Compound 1.250] | 247 |
| NS(=O)(=O)c1cccc(CN2CCC[C@@H](Nc3ccc4[nH]ncc4c3)C2)c1 [Compound 1.249] | 91.7 |
| CC(C)c1ccc(CN2CCC[C@H](Nc3ccc4[nH]ncc4c3)C2)cc1 [Compound 1.180] | 138 |

----------
- SYSTEM: ROCK2 (Homo sapiens, UniProt O75116)
- Construct: purchased Upstate/Chemicon 14-451
- EXPERIMENT_SUMMARY: Rho kinase inhibition assay (IMAP fluorescence polarization), ROCK2
- Format: biochemical
- DETAILS: 10 μM ATP; read-out: ROCK2 Ki, Avg
The reader will find reported Ki values listed item by item below.
REPORTED_ENDPOINT: Ki

| MOLECULE | ASSAY_VALUE |
| --- | --- |
| Cc1ccc(CN2CCC[C@H](Nc3ccc4[nH]ncc4c3)C2)cc1O [Compound 1.151] | 2.9 nM |
| Fc1ccc(CN2CCC[C@H](Nc3ccc4[nH]ncc4c3)C2)cc1 [Compound 1.164] | 6.1 nM |
| c1csc(CN2CC[C@@H](Nc3cccc4cnccc34)C2)c1 [Compound 2.090] | 19.5 nM |
| CN(c1cccc(CN2CCC[C@@H](Nc3ccc4[nH]ncc4c3)C2)c1)S(C)(=O)=O [Compound 1.207] | 43.7 nM |
| OCCOc1cccc(CN2CCC[C@@H](Nc3ccc4[nH]ncc4c3)C2)c1 [Compound 1.092] | 28.4 nM |
| CN(c1cccc(CN2CCC[C@H](Nc3ccc4[nH]ncc4c3)C2)c1)S(C)(=O)=O [Compound 1.198] | 24.7 nM |
| OCCOc1cccc(CN2CCC[C@@H](Nc3cccc4cnccc34)C2)c1 [Compound 2.034] | 221 nM |
| O=C(OCCOc1cccc(CN2CCC[C@@H](Nc3ccc4[nH]ncc4c3)C2)c1)c1ccccc1 [Compound 1.225] | 189 nM |
| OC[C@@H](O)COc1cccc(CN2CCC[C@@H](Nc3ccc4[nH]ncc4c3)C2)c1 [Compound 1.115] | 20.6 nM |
| O=S(=O)(Nc1cccc(CN2CC[C@@H](Nc3cccc4cnccc34)C2)c1)N1CCCCC1 [Compound 2.069] | 2.4 nM |
| OCCOc1cccc(CN2CCC[C@H](Nc3ccc4[nH]ncc4c3)C2)c1 [Compound 1.090] | 24.9 nM |
| c1cc2cc(CN3CCC[C@@H](Nc4ccc5[nH]ncc5c4)C3)ccc2[nH]1 [Compound 1.143] | 12.6 nM |
| CCS(=O)(=O)Nc1cccc(CN2CCC[C@H](Nc3ccc4[nH]ncc4c3)C2)c1 [Compound 1.124] | 3.3 nM |
| CC(C)(C)OC(=O)NCc1ccc(CN2CCC[C@H](Nc3ccc4[nH]ncc4c3)C2)cc1 [Compound 1.199] | 213 nM |
| COc1ccc(CN2CCC[C@H](Nc3ccc4[nH]ncc4c3)C2)cc1NS(C)(=O)=O [Compound 1.234] | 166 nM |
| c1ccc(CN2CCC[C@H](Nc3ccc4[nH]ncc4c3)C2)cc1 [Compound 1.227] | 5.3 nM |
| OCCCOc1cccc(CN2CCC[C@@H](Nc3ccc4[nH]ncc4c3)C2)c1 [Compound 1.231] | 60.3 nM |

----------
- SYSTEM: ROCK2 (Homo sapiens)
- Construct: purchased Upstate/Chemicon 14-451
- EXPERIMENT_SUMMARY: Rho kinase inhibition assay (IMAP fluorescence polarization), ROCK2;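 also: kinase reaction started with 10 µM ATP and run 60 min at room temperature, then phosphorylated substrate captured on IMAP beads for 30 min and fluorescence polarization read in mP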
- Assay type: biochemical
- DETAILS: 10 μM ATP; read-out: ROCK2 Ki, Avg
pKi: −log10 of the molar value.
Please mark condition met if the recorded pKi is equal to or greater than 8, and condition not met if it falls below.

| COMPOUND | ASSIGNED_CATEGORY |
| --- | --- |
| Cc1ccc(CN2CC[C@@H](Nc3cccc4cnccc34)C2)cc1OCC(=O)O | condition met |
| FC(F)(F)c1cccc(CN2CC[C@@H](Nc3ccc4[nH]ncc4c3)C2)c1 | condition not met |
| NC(=O)Cn1ccc2cc(CN3CCC[C@@H](Nc4ccc5[nH]ncc5c4)C3)ccc21 | condition met |
| Cc1c(CN2CC[C@@H](Nc3cccc4cnccc34)C2)cccc1NS(C)(=O)=O | condition met |
| C[C@@H](O)COc1cccc(CN2CCC[C@H](Nc3ccc4[nH]ncc4c3)C2)c1 | condition not met |
| Clc1ccc(CN2CCC(Nc3cccc4cnccc34)C2)cc1Cl (stereo not drawn) | condition not met |
| c1cnc(CN2CC[C@@H](Nc3cccc4cnccc34)C2)nc1 | condition not met |
| Clc1cccc(CN2CCC[C@@H](Nc3ccc4[nH]ncc4c3)C2)c1 | condition not met |
| Clc1ccc(CN2CCC[C@@H](Nc3ccc4[nH]ncc4c3)C2)cc1Cl | condition not met |
| CCS(=O)(=O)Nc1cc(CN2CC[C@@H](Nc3cccc4cnccc34)C2)ccc1C | condition met |
| CC1(C)OC[C@H](COc2cccc(CN3CCC[C@H](Nc4ccc5[nH]ncc5c4)C3)c2)O1 | condition not met |
| CSc1cccc(CN2CCC[C@H](Nc3ccc4[nH]ncc4c3)C2)c1 | condition met |
| [O-][n+]1ccc2c(N[C@@H]3CCN(Cc4cccc(OCCO)c4)C3)cccc2c1 | condition not met |
| COc1ccc(CN2CC[C@@H](Nc3cccc4cnccc34)C2)cc1NS(C)(=O)=O | condition not met |
| CSc1ccc(CN2CCCC(Nc3ccc4[nH]ncc4c3)C2)cc1 (stereo not drawn) | condition met |
| CCOC(=O)c1ccc(CN2CCC[C@H](Nc3ccc4[nH]ncc4c3)C2)cc1 | condition not met |
| CCS(=O)(=O)Nc1cc(CN2CCC[C@H](Nc3ccc4[nH]ncc4c3)C2)ccc1C | condition met |
| NC(=O)Cn1ccc2cc(CN3CC[C@@H](Nc4cccc5cnccc45)C3)ccc21 | condition met |
| CS(=O)(=O)c1ccc(CN2CCC[C@@H](Nc3ccc4[nH]ncc4c3)C2)cc1 | condition not met |
| CCCCS(=O)(=O)Nc1cc(CN2CCC[C@H](Nc3ccc4[nH]ncc4c3)C2)ccc1C | condition met |
| Cc1ccc(CN2CCC[C@@H](Nc3ccc4[nH]ncc4c3)C2)c(C)c1 | condition met |
| O=C(COc1cccc(CN2CC[C@@H](Nc3cccc4cnccc34)C2)c1)N1CCOCC1 | condition not met |
| CS(=O)(=O)Nc1cccc(CN2CCCC(Nc3ccc4[nH]ncc4c3)C2)c1 (stereo in doubt) [Compound 1.091] | condition met |
| O=C(O)COc1cccc(CN2CCC[C@@H](Nc3ccc4[nH]ncc4c3)C2)c1 | condition not met |
| CC(=O)NCCOc1cccc(CN2CCC[C@H](Nc3ccc4[nH]ncc4c3)C2)c1 | condition not met |
| Cc1ccc(CN2CCC[C@H](Nc3ccc4[nH]ncc4c3)C2)cc1NS(C)(=O)=O | condition met |
| CCc1ccc(CN2CCC[C@@H](Nc3ccc4[nH]ncc4c3)C2)cc1 | condition met |
| C=Cc1ccc(CN2CCC[C@H](Nc3ccc4[nH]ncc4c3)C2)cc1 | condition not met |
| CC(=O)NCc1cccc(CN2CC[C@@H](Nc3cccc4cnccc34)C2)c1 | condition not met |
| CC(=O)NCCOc1cccc(CN2CCC[C@@H](Nc3ccc4[nH]ncc4c3)C2)c1 | condition not met |

Values compiled from patent US20090325959A1.
